Tested on: aortic smooth muscle cells (AoSMC)
Ends that are not written are not given here. * marks the point of attachment. Biotin = O=C1N[C@H]2[C@H](CS[C@H]2CCCCC(=O)*)N1
measured quantity: Bmax (counts/cell)
Report as a plain number; the unit counts/cell is understood.

- substance: "Biotin-GCDSHKRLKCG (cysteine pairing not given here) [9-G5]"
  Bmax (counts/cell): 2.937
- substance: "Biotin-GCMNQHSSACG (cysteine pairing not given here) [3-B5]"
  Bmax (counts/cell): 8.354
- substance: "Biotin-GCHSSTWRACG (cysteine pairing not given here) [2-C10]"
  Bmax (counts/cell): 0.9694
- substance: "Biotin-GCTQMRTAYCG (cysteine pairing not given here) [7-D5]"
  Bmax (counts/cell): 10.8332

Note: attention shifts to another entry.
-- ask Check aortic smooth muscle cells (AoSMC) data and give Bmax (counts/cell) for Biotin-GCPTPHSGTCG (cysteine pairing not given here) [2-G9] .
-- reply 8.519

----------
Each item that follows carries a reported Binding Affinity.
Tested on: aortic smooth muscle cells (AoSMC)
Ends that are not written are not given here. * marks the point of attachment. Biotin = O=C1N[C@H]2[C@H](CS[C@H]2CCCCC(=O)*)N1
Answer using only a numeral; do not append any unit.

In the examples that follow, each entry is paired with its recorded Binding Affinity.
- substance: "Biotin-GCPTPHSGTCG (cysteine pairing not given here) [2-G9]"
  study system: "aortic smooth muscle cells (AoSMC)"
  Binding Affinity: 57.639
- substance: "Biotin-GCDSHKRLKCG (cysteine pairing not given here) [9-G5]"
  study system: "aortic smooth muscle cells (AoSMC)"
  Binding Affinity: "−2.127"
- substance: "Biotin-GCTQMRTAYCG (cysteine pairing not given here) [7-D5]"
  study system: "aortic smooth muscle cells (AoSMC)"
  Binding Affinity: 28.211
- substance: "Biotin-GCMNQHSSACG (cysteine pairing not given here) [3-B5]"
  study system: "aortic smooth muscle cells (AoSMC)"
  Binding Affinity: 85.24

-- ask For Biotin-GCHSSTWRACG (cysteine pairing not given here) [2-C10] , write its Binding Affinity.
-- reply −5.709

----------
Test system: angiogenesis in Matrigel plug
experiment: Mouse Matrigel plug assay (FGF-induced angiogenesis, hemoglobin content)
Format: in vivo
assay context: mouse Matrigel plug with FGF
Ends that are not written are not given here. * marks the point of attachment. Biotin = O=C1N[C@H]2[C@H](CS[C@H]2CCCCC(=O)*)N1
measured quantity: inhibition of angiogenesis in the Matrigel plug assay (in words)

- substance: "Biotin-GCHSSTWRACG (cysteine pairing not given here) [2-C10]"
  obs value: "tested positive"
- substance: "Biotin-GCPTPHSGTCG (cysteine pairing not given here) [2-G9]"
  obs value: "tested positive"
- substance: "Biotin-GCDSHKRLKCG (cysteine pairing not given here) [9-G5]"
  obs value: "tested positive"
- substance: "HTKQIPRHIYSA [1-H5]"
  obs value: "tested positive"
